The measurements presented in this section are drawn from patent EP1247803A2.

Items are presented alongside their recorded Fik Kinase %Inhibition.
Test system: FLK-1 receptor (Mus musculus, UniProt P35918)
Construct: expressed in transfected cells; host or cells: NIH3T3 C7#3
Sequence (P35918 20-1345): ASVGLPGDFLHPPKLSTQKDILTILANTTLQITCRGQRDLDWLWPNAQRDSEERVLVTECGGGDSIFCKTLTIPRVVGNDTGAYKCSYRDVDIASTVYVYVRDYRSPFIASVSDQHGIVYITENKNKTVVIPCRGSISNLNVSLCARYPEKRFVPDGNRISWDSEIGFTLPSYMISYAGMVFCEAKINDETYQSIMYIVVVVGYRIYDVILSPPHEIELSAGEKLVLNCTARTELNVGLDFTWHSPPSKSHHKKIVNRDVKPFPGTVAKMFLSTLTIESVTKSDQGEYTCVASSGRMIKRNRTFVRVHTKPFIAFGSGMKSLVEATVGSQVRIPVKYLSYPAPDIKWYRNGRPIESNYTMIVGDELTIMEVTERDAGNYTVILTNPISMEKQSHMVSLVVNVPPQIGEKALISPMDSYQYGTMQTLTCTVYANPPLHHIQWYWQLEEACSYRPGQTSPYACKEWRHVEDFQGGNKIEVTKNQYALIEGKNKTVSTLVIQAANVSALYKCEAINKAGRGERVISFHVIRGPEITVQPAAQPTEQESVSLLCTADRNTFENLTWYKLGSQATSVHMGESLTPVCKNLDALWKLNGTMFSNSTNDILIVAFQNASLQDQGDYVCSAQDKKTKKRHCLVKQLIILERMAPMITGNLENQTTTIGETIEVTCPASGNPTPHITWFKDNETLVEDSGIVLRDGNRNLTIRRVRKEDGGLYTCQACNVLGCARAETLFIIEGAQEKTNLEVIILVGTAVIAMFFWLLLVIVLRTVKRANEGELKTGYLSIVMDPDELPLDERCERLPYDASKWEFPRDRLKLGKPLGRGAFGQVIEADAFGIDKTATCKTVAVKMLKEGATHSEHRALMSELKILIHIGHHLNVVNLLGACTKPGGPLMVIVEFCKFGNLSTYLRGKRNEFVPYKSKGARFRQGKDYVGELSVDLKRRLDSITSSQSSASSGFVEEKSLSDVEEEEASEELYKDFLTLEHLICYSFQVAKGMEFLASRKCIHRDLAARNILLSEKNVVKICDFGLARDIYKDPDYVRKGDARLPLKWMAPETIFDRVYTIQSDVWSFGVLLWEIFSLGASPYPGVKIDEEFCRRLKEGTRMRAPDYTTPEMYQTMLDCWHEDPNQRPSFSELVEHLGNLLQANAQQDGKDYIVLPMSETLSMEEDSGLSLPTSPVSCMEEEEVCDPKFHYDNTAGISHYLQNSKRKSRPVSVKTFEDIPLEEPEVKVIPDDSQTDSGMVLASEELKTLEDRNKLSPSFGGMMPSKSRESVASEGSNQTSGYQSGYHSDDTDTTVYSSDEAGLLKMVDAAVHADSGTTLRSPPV
Assay protocol: FLK-1 ELISA (kinase activity of the FLK-1 receptor in FLK-1/NIH3T3 cells, VEGF stimulated)
Type: cell-based
Give a bare numeral; the unit % is implied.

A selection of reference data follows.
Compound	Test system	Unit name	Fik Kinase %Inhibition
Cc1cc(C)c(C=C2C(=O)Nc3ccc(CCCl)cc32)[nH]1	FLK-1 receptor (Mus musculus, UniProt P35918)	%	5.4
Cc1c(Br)ccc2c1C(=Cc1sc3scc(C)c3c1C)C(=O)N2	FLK-1 receptor (Mus musculus, UniProt P35918)	%	10.3
COc1ccc2[nH]cc(C=C3C(=O)Nc4ccc(S(=O)(=O)N5CCOCC5)cc43)c2c1	FLK-1 receptor (Mus musculus, UniProt P35918)	%	2.3
O=C1Nc2ccc(S(=O)(=O)N3CCOCC3)cc2C1=Cc1cc2c(cc1Cl)OCO2	FLK-1 receptor (Mus musculus, UniProt P35918)	%	14.5
CNS(=O)(=O)c1ccc2c(c1)C(=Cc1ccccc1)C(=O)N2	FLK-1 receptor (Mus musculus, UniProt P35918)	%	10.1
O=C1Nc2c(Br)cc(Br)cc2C1=Cc1cc2c([nH]1)CCCC2	FLK-1 receptor (Mus musculus, UniProt P35918)	%	12.5
Cc1c(Br)ccc2c1C(=CC(c1cccs1)C(F)(F)F)C(=O)N2 (centres unmarked)	FLK-1 receptor (Mus musculus, UniProt P35918)	%	11.9
CC(C)c1cc(C=C2C(=O)Nc3ccc(S(=O)(=O)Nc4ccc(C(F)(F)F)cc4)cc32)cc(C(C)C)c1Oc1ccccc1	FLK-1 receptor (Mus musculus, UniProt P35918)	%	15.8

Param item = CC(C)(C)c1cc(C=C2C(=O)Nc3ccc(CCCl)cc32)cc(Cl)c1O ; retrieve measured Fik Kinase %Inhibition.
8.2

Can you look up the measured Fik Kinase %Inhibition of CCOc1ccc(C=C2C(=O)Nc3ccc(I)cc32)cc1OC for me?
11.5

Requested read-out: Fik Kinase %Inhibition. Entry: CC(C)(C)c1ccc(C=C2C(=O)Nc3ccc(I)cc32)cc1
15.7

Field request: Fik Kinase %Inhibition | item: Cc1cn(C)cc1C=C1C(=O)Nc2ccc(S(=O)(=O)Nc3ccc(C(F)(F)F)cc3)cc21
6.2

Quick check: Fik Kinase %Inhibition of O=C1Nc2c(Br)cc(Br)cc2C1=Cc1cc([N+](=O)[O-])cc(CCl)c1O ?
6.4
